# ASSAY OVERVIEW: Nitric oxide releasing capability in the absence of cysteine after 24 hr
Listing: % NO2- of selected molecules
RESULT TYPE: % NO2- (M/M)

>>> df
                               smiles_input  result_type  units_text  value_observed
0         CN(C)CCOc1c(-c2ccccc2)no[n+]1[O-]       % NO2-         M/M              97
1  CN(C)CCSc1c(S(=O)(=O)c2ccccc2)no[n+]1[O-]       % NO2-         M/M             100
2             NCCSc1c(-c2ccccc2)no[n+]1[O-]       % NO2-         M/M              56
3  CN(C)CCS(=O)(=O)c1c(-c2ccccc2)no[n+]1[O-]       % NO2-         M/M              33

Ref: ChEMBL document CHEMBL1129936
